Source of measurements: patent US20230381193A1

# measurement notes: Solubility of the crystalline form
# Type: physicochemical
# particulars: fasted state simulated intestinal fluid (FaSSIF), 22 °C, fassif, thermodynamic from solid; read-out: Solubility in fasted state simulated intestinal fluid (FaSSIF)
observation type: solubility (µg/mL)
Give the value, in units of µg/mL, as a plain number.

// returns reported solubility for input `Cn1ncc(C(=O)N2CCOCC2)c1C(=O)Nc1ccn2nc(-c3ccccc3)nc2c1`
6

###

# measurement notes: Solubility of the crystalline form
# Format: physicochemical
# particulars: organic solvents, organic solvent or mixture, thermodynamic from solid; ambient temperature (22° C.); read-out: Solubility in most of the tested organic solvents
observation type: solubility

Field request: solubility | item: `Cn1ncc(C(=O)N2CCOCC2)c1C(=O)Nc1ccn2nc(-c3ccccc3)nc2c1`
< 50 mg/mL
